Measured target: RelBs^NTD2:DarB2 complex (DarB:RelBs^NTD) (Bacillus subtilis, UniProt O54408)
Construct: gene relA; heterotetramer of Rel residues 1 to 373 with full-length DarB, His10-SUMO tags cleaved, complex purified by size exclusion chromatography; with CBS domain-containing protein YkuL
Sequence (O54408 1-373): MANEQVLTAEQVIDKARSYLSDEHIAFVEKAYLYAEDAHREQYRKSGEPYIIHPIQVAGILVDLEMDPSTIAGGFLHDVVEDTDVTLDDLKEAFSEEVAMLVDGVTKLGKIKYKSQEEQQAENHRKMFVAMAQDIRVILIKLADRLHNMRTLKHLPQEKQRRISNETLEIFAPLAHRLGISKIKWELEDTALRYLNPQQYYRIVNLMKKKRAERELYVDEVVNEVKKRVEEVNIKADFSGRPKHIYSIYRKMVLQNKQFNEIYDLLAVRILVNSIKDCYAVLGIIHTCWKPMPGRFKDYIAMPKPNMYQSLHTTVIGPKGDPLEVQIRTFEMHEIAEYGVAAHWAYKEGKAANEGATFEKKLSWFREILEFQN
Sequence (O31698 whole entry, further chain, the tested form may be a part): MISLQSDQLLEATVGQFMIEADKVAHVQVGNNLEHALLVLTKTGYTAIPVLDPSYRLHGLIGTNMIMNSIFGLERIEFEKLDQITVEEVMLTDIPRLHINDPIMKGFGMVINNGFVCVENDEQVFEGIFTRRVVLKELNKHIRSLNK
Procedure summary: isothermal titration calorimetry
Assay type: binding
Condition set: read-out: Kd
Recorded metric: Kd (µM)

mol_smiles=Nc1nc2c(ncn2[C@@H]2O[C@H](COP(=O)(O)OP(=O)(O)OP(=O)(O)O)[C@@H](OP(=O)(O)OP(=O)(O)O)[C@H]2O)c(=O)[nH]1 result_units=µM quantitative_result=8.2

###

Measured target: RelBs^NTD2:DarB2 complex (DarB:RelBs^NTD) (Bacillus subtilis, UniProt O54408)
Construct: gene relA; heterotetramer of Rel residues 1 to 373 with full-length DarB, His10-SUMO tags cleaved, complex purified by size exclusion chromatography; with CBS domain-containing protein YkuL
Procedure summary: stopped-flow FRET, Kd = koff/kon
Type: binding
Condition set: read-out: Kd^MANT-ATP
pKd: −log10 of the molar value.
Recorded metric: pKd

compound="CNc1ccccc1C(=O)O[C@H]1[C@@H](O)[C@H](n2cnc3c(N)ncnc32)O[C@@H]1CO[P@@](=O)(O)O[P@](=O)(O)OP(=O)(O)O (mixture of isomers)" recorded_metric=pKd quantitative_result=3.51
